test-protocol: yeast display, Sf9 membrane polyspecificity reagent, FACS + sequencing; frameworks hold sequencing errors
endpoint-label: polyreactivity (PSR sort gate)

INSERT INTO results (sequence_entry, reported_result) VALUES
  ('QVQLVESGGGLVQEGGSLRLSCAASGSTFRYYAMGWYRQAPGKERELVASISSSGGNTYGDAVKGRFTISRDNAKNTVYLQMNSLKPEDTAVYYCNADWALLYSPPYTYRYGYWGQGTQVTVSS', 'low polyreactivity'),
  ('QVQLVESGGGLVQAGGSLSLSCAASGRIFQPYAMGWYRQAPGKERELVARITSGGSTYADSVKGRFTISRDNAKNTVYLQMNSLKPEDTAVYYCAVRFPWYYRGYAYDYWGQGTQVTVSS', 'high polyreactivity'),
  ('QVQLVESGGGLVQAGGSLRLSCAASGRIFKRYTMGWYRQAPGQERELVAGITFSGGSTYYADSVKGRFTISRDNAKNTVYLQMNSLKPEDTAVYYCNARVPPQGWGPWKAFDYWGQGTQVTVSS', 'low polyreactivity'),
  ('QVQLVESGGGLVQAGGSLRLSCAASGRIIRYYAMGWYRQAPGKERELVATISRSGGSTFYADSVKGRFTISRDNAKNTVYLQMNSLKPEDTAVYYCNARYQTGGYGYWGQGTQVTVSS', 'high polyreactivity');

// next entry
Exercise: Would you kindly share the measured polyreactivity (PSR sort gate) for `HVQLVESGGGLVQAGGSLRLSCAASGSIFGLYAMGWSRQAPGKEWELVAAITRGDSTNYADSVKGRFTISRDNAKNTVYLQMNSLKPEDTAVYYCNAVYAGWRGGNYWGQGTQVTVSS` ?
Solution: low polyreactivity
